# system-under-test: YFP (UniProt P42212)
# experimental-protocol: ITC
endpoint: Kd (nM)
Report the value in nM with no unit label.

Kd lookup needed for GGGAGCUUCUGGACUGCGAUGGGAGCACGAAACGUCGUGGCGCAAUUGGGUGGGGAAAGUCCUUAAAAGAGGGCCACCACAGAAGCUCCC [free RNA aptamer against GFP family] , thanks.
4
